# SYSTEM NAME: Beta Secretase enzyme (BACE1) (Homo sapiens)
# MEASUREMENT NOTES: In vitro enzymatic BACE FRET assay
# Assay type: biochemical
# DETAILS: average IC50, enzyme assay; read-out: BACE1 FRET assay IC50
Lab note - cut at 2 nM for IC50: fulfilled if strictly below, not fulfilled if not.

Sample answers from the record:
CC1(C)C(N)=N[C@](C)(c2cc(NC(=O)c3cnc(OCC(F)F)cn3)ccc2F)CS1(=O)=O [Example 314] = fulfilled
CC#Cc1ccnc(Oc2ccc(F)c([C@]3(C)CS(=O)(=O)C(C)(C)C(N)=N3)c2)c1 [Example 286] = not fulfilled
CC1(C)C(N)=N[C@](C)(c2cc(Nc3ncc(F)c4cc(Cl)cnc34)cnc2F)CS1(=O)=O [Example 220] = fulfilled
CCOc1cnc2c(Nc3ccc(F)c([C@]4(CF)CS(=O)(=O)C(C)(C)C(N)=N4)c3)nccc2n1 [Example 237] = not fulfilled
CC1(C)C(N)=N[C@](C)(c2cc(Nc3nncc4cc(Br)cnc34)ccc2F)CS1(=O)=O [Example 451] = fulfilled
CC1(C)C(N)=N[C@](C)(c2cc(NC(=O)c3cnc(OCC(F)(F)F)cn3)ccc2F)C(F)S1(=O)=O (stereo partly shown) [Example 333] = fulfilled

Now for another entry.
## Input IC50 under 2 nM? Item: CC1(C)C(N)=N[C@](C)(c2cc(NC(=O)c3ncc(C#N)cc3Cl)ccc2F)CS1(=O)=O [Example 356]
## Output fulfilled

---

# System: Aβ40 in conditioned medium of cells stably expressing Amyloid Precursor Protein (APP)
# MEASUREMENT NOTES: In vitro BACE cell-based assay (HEK cell assay), Aβ40 sandwich ELISA
# DETAILS: Homo sapiens, HEK293
Category key, based on recorded IC50: 0 (below 10 nM), 1 (10 nM to below 30 nM), 2 (30 nM or more)

Completed entries (count: 5):
CC1(C)C(N)=N[C@](CF)(c2cc(NC(=O)c3ncc(Cl)cc3F)ccc2F)CS1(=O)=O [Example 409] = 0
COc1ccc(C(=O)Nc2cnc(F)c([C@]3(C)CS(=O)(=O)C(C)(C)C(N)=N3)c2)nc1 [Example 401] = 1
C[C@@]1(c2cc(NC(=O)c3ccc(Cl)cn3)ccc2F)CS(=O)(=O)C2(CC(F)(F)C2)C(N)=N1 [Example 120] = 1
COc1cnc(C(=O)Nc2ccc(F)c([C@@]3(C)N=C(N)C4(CCC4)S(=O)(=O)[C@@H]3F)c2)c(C)c1 [Example 137] = 0
CC1(C)C(N)=N[C@](CF)(c2cc(NC(=O)c3ncc(C(F)(F)F)cc3Cl)ccc2F)CS1(=O)=O [Example 379] = 1

Continue with the compound presented below.
## Input Assign a category based on measured IC50 for CC1(C)C(N)=N[C@](C)(c2cc(Nc3ccc4c(c3)OC(F)(F)O4)cnc2F)CS1(=O)=O [Example 414] and give only the class name.
## Output 2

---

# SYSTEM NAME: Beta Secretase enzyme (BACE1) (Homo sapiens, UniProt P56817)
# Sequence (P56817 46-501): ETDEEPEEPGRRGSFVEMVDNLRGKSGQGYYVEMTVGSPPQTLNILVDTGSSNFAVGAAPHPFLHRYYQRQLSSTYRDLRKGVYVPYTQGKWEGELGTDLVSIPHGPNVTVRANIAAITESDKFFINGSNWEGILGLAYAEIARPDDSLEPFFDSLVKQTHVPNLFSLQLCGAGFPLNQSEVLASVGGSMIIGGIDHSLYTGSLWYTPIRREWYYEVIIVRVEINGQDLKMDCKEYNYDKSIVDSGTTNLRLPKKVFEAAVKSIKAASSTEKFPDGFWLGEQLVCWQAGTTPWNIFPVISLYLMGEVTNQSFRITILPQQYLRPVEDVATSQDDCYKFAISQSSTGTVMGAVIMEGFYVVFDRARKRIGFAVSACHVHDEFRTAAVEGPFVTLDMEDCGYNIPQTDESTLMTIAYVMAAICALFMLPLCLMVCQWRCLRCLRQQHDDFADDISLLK
# MEASUREMENT NOTES: In vitro enzymatic BACE FRET assay
# Format: biochemical
# DETAILS: read-out: BACE1 FRET assay IC50
Decision: IC50 beneath 3 nM gives y; IC50 meeting or exceeding 3 nM gives n.

Solved cases (2 shown):
C[C@@]1(c2cc(Nc3nccc4cc(C#N)cnc34)cnc2F)CS(=O)(=O)C2(CCC2)C(N)=N1 [Example 386] = n
CC1(C)C(N)=N[C@](C)(c2cc(Nc3ncnc4cc(Cl)cnc34)ccc2F)CS1(=O)=O [Example 52] = y

## Input Given the entry COc1cnc2c(Nc3ccc(F)c(C4(CF)CS(=O)(=O)C(C)(C)C(N)=N4)c3)nccc2c1 (stereo not shown) [Example 61] , would its reported IC50 be below 3 nM?
## Output n

## Input Decide: IC50 of COc1cnc(C(=O)Nc2cc(C3(C)CS(=O)(=O)C(C)(C)C(N)=N3)c(F)cn2)cn1 (stereo not shown) [Example 41] strictly below 3 nM?
## Output n

## Input Problem: For the compound CC1(C)C(N)=N[C@](C)(c2cc(Nc3c(Cl)sc4cc(C#N)cnc34)ccc2F)CS1(=O)=O [Example 167] , is IC50 under 3 nM?
## Output n

## Input Dear reviewer, please state whether Cc1cc(OCC(F)(F)F)cnc1C(=O)Nc1ccc(F)c([C@]2(CF)CS(=O)(=O)C3(CCC3)C(N)=N2)c1 [Example 374] has IC50 strictly beneath 3 nM.
## Output y

## Input Record COc1cc(Cl)cnc1C(=O)Nc1ccc(F)c([C@]2(CF)CS(=O)(=O)C3(CCC3)C(N)=N2)c1 [Example 375] : is its IC50 strictly below 3 nM?
## Output y
